test description: Inhibition of bacterial DNA gyrase
Parameters: species or system Bacteria
property measured: IC50 (µg/mL)
// return numeric value only (unit: µg/mL, not printed)

Entry COc1ccc2nccc(-n3cc4c(n3)CCN(C(=O)c3ccc5c(c3)NC(=O)CS5)CC4)c2n1 , IC50 reported as 0.25

Lab note: measured IC50 of COc1ccc2nccc(-n3cc4c(n3)CCC(NC(=O)c3ccc5c(c3)NC(=O)CS5)C4)c2c1 (stereo unspecified) was 1

The measured IC50 associated with COc1ccc2nccc(-n3cc4c(n3)CCC(NCc3ccc5c(c3)NC(=O)CS5)C4)c2c1 (stereo unspecified) reads 0.25

Notebook: COc1ccc2nccc(-n3cc4c(n3)CCC(NC(=O)c3ccc5c(c3)NC(=O)CS5)C4)c2n1 (stereo unspecified) , IC50 read as 0.06

According to the records, this compound COc1ccc2nccc(-n3cc4c(n3)CCC(NCc3ccc5c(c3)NC(=O)CS5)C4)c2n1 (stereo unspecified) displays IC50 of 0.25

Field IC50 (entry COc1ccc2nccc(-n3ncc4c3CCC(NCc3ccc5c(c3)NC(=O)CS5)C4)c2c1 (stereo unspecified) ) reads 2

Data point: COc1ccc2nccc(-n3cc4c(n3)CCC(NCc3ccc5c(c3)OCCO5)C4)c2c1 (stereo unspecified) ; IC50 = 2

====

Tested on: Streptococcus pneumoniae
test description: Antibacterial activity against Streptococcus pneumonia ATCC 49619
Assay type: functional
property measured: MIC

Looking up COc1ccc2nccc(-n3cc4c(n3)CCN(Cc3ccc5c(c3)OCCO5)C4)c2c1 , I found its MIC recorded as > 128 µg/mL

Record summary for COc1ccc2nccc(-n3ncc4c3CCN(Cc3ccc5c(c3)OCCO5)C4)c2c1 : reported MIC = > 128 µg/mL

Short answer for COc1ccc2nccc(-n3ncc4c3CCC(NCc3ccc5c(c3)NC(=O)CS5)C4)c2c1 (stereo not drawn) : MIC was > 128 µg/mL
